Cited source for all entries: patent US10167262B2

test system: woolly cupgrass (Eriochloa villosa); experiment: Test C postemergence greenhouse test, plant response rating 0-100; assay type: in vivo; details: 125 g ai/ha
Please go through the items and note down their Plant response rating (0 to 100), Cupgrass, Woolly.

The measured Plant response rating (0 to 100), Cupgrass, Woolly associated with Fc1ccccc1NN=C(c1ccccc1)c1c[nH]nc1-c1cc(Cl)cc(Cl)c1 [Compound 57] reads 5

Reported Plant response rating (0 to 100), Cupgrass, Woolly ( Clc1cc(Cl)cc(-c2n[nH]cc2C(=NN2CCCC2)c2ccccc2)c1 [Compound 30] ) = 0

Record summary for CCn1cc(C(=O)c2cccs2)c(-c2cc(Cl)cc(Cl)c2)n1 [Compound 18] : reported Plant response rating (0 to 100), Cupgrass, Woolly = 10

Plant response rating (0 to 100), Cupgrass, Woolly for Cn1cc(C(=O)c2cccs2)c(-c2cc(Cl)cc(Cl)c2)n1 [Compound 17] is 0

The molecule listed as ON=C(c1ccccc1)c1c[nH]nc1-c1cc(Cl)cc(Cl)c1 [Compound 50] shows Plant response rating (0 to 100), Cupgrass, Woolly equal to 0

====

System: waterhemp_RES2, (ALS & HPPD resistant common waterhemp, Amaranthus rudis)
Test: Test E postemergence greenhouse test, plant response rating 0-100
Assay type: in vivo
Conditions: 31 g ai/ha, scale 0 to 100
Source text: […] Treated plants and controls were maintained in a greenhouse for 14 to 21 days, after which time all species were compared to controls and visually evaluated. […]
Assign Plant response rating, Waterhemp_RES2 to each entry below.
// no unit string in output, number only

Memo: CCCn1cc(C(=O)c2ccccc2)c(-c2cc(Cl)cc(Cl)c2)n1 , reported Plant response rating, Waterhemp_RES2: 20

Field Plant response rating, Waterhemp_RES2 (entry O=C(c1ccccc1)c1cn(CO)nc1-c1cc(Cl)cc(Cl)c1 ) reads 60

Lookup result for CCOC(OCC)(c1ccccc1)c1c[nH]nc1-c1cc(Cl)cc(Cl)c1 ; measured Plant response rating, Waterhemp_RES2: 75

Note to self: Plant response rating, Waterhemp_RES2 recorded for COCC(=O)n1cc(C(=O)c2ccccc2)c(-c2cc(Cl)cc(Cl)c2)n1 was 95

====

tested on: oilseed rape (Brassica napus); test: Test C pre-/postemergence greenhouse test, plant response rating 0-100; type: in vivo; conditions: Preemergence, 250 g ai/ha
readout_name: Plant response rating, Oilseed Rape

// recorded Plant response rating, Oilseed Rape for O=C(c1ccccc1)c1cn(CO)nc1-c1cc(Cl)cc(Cl)c1 : 80

Entry O=Cn1cc(C(=O)c2ccccc2)c(-c2cc(Cl)cc(Cl)c2)n1 — recorded Plant response rating, Oilseed Rape = 98

Notebook: C#CCn1cc(C(=O)c2ccccc2)c(-c2cc(Cl)cc(Cl)c2)n1 , Plant response rating, Oilseed Rape read as 50

Field Plant response rating, Oilseed Rape (entry Cn1cc(C(=O)c2ccccc2)c(-c2cc(Cl)cc(Cl)c2)n1 ) reads 0

====

system: waterhemp (common waterhemp, Amaranthus rudis); experiment: Test C pre-/postemergence greenhouse test, plant response rating 0-100; type: in vivo; conditions: Postemergence, 125 g ai/ha
Please go through the items and note down their Plant response rating (0 to 100), Waterhemp.

Plant response rating (0 to 100), Waterhemp measured on O=Cn1cc(C(=O)c2ccccc2)c(-c2cc(Cl)cc(Cl)c2)n1 = 98

So for O=C(c1ccccc1)c1cn(S(=O)(=O)CCl)nc1-c1cc(Cl)cc(Cl)c1 , the logged Plant response rating (0 to 100), Waterhemp turned out to be 90

Plant response rating (0 to 100), Waterhemp reported for this molecule COCC(=O)n1cc(C(=O)c2ccccc2)c(-c2cc(Cl)cc(Cl)c2)n1 : 95

// sample CCOC(OCC)(c1cccs1)c1c[nH]nc1-c1cc(Cl)cc(Cl)c1 , its Plant response rating (0 to 100), Waterhemp was 98

Plant response rating (0 to 100), Waterhemp recorded for this molecule, CCOC(OCC)(c1ccccc1)c1c[nH]nc1-c1cc(Cl)cc(Cl)c1 , is 95

====

tested on: hairy beggarticks (Bidens pilosa); test: Test E pre-/postemergence greenhouse test, plant response rating 0-100; format: in vivo; conditions: Preemergence, 125 g ai/ha, scale 0 to 100
readout_name: Beggarticks plant response rating

Short answer for Cn1cc(C(=O)c2ccccc2)c(-c2cc(Cl)cc(Cl)c2)n1 : Beggarticks plant response rating was 0

Field Beggarticks plant response rating (entry O=C(c1ccccc1)c1cn(S(=O)(=O)CCl)nc1-c1cc(Cl)cc(Cl)c1 ) reads 0

Entry COCC(=O)n1cc(C(=O)c2ccccc2)c(-c2cc(Cl)cc(Cl)c2)n1 — recorded Beggarticks plant response rating = 25

// O=C(c1ccccc1)c1cn(S(=O)(=O)CC(F)(F)F)nc1-c1cc(Cl)cc(Cl)c1 : Beggarticks plant response rating value = 25

====

test system: surinam grass (Brachiaria decumbens); experiment: Test C postemergence greenhouse test, plant response rating 0-100; assay type: in vivo; settings: 62 g ai/ha
Please go through the items and note down their Plant response rating (0 to 100), Surinam Grass.

compound Cn1cc(C(=O)c2cccs2)c(-c2cc(Cl)cc(Cl)c2)n1 [Compound 17] , Plant response rating (0 to 100), Surinam Grass observed: 0

Data point: CCCn1cc(C(=O)c2ccccc2)c(-c2cc(Cl)cc(Cl)c2)n1 [Compound 61] ; Plant response rating (0 to 100), Surinam Grass = 0

The measured Plant response rating (0 to 100), Surinam Grass associated with C#CCn1cc(C(=O)c2ccccc2)c(-c2cc(Cl)cc(Cl)c2)n1 [Compound 39] reads 0

Noted for C=CCn1cc(C(=O)c2ccccc2)c(-c2cc(Cl)cc(Cl)c2)n1 [Compound 60] : its Plant response rating (0 to 100), Surinam Grass reads 0

// Plant response rating (0 to 100), Surinam Grass value for Cn1cc(C(=NN2CCCC2)c2ccccc2)c(-c2cc(Cl)c(Cl)c(Cl)c2)n1 [Compound 25] : 0

====

system: pigweed (Amaranthus retroflexus); assay: Test C pre-/postemergence greenhouse test, plant response rating 0-100; assay type: in vivo; conditions: Postemergence, 62 g ai/ha
For each entry below, report its Plant response rating (0 to 100), Pigweed value.

CCn1cc(C(=O)c2ccccc2)c(-c2cc(Br)cc(Br)c2)n1 tested on pigweed (Amaranthus retroflexus) gave Plant response rating (0 to 100), Pigweed: 85

Cn1cc(C(=O)c2ccccc2)c(-c2cc(Br)cc(Br)c2)n1 on pigweed (Amaranthus retroflexus) gives Plant response rating (0 to 100), Pigweed = 85

Entry CCOC(OCC)(c1cccs1)c1c[nH]nc1-c1cc(Cl)cc(Cl)c1 : Plant response rating (0 to 100), Pigweed on pigweed (Amaranthus retroflexus) = 80

// returns Plant response rating (0 to 100), Pigweed for CCn1cc(C(=O)c2cccs2)c(-c2cc(Cl)cc(Cl)c2)n1 with pigweed (Amaranthus retroflexus); value = 85

Reported Plant response rating (0 to 100), Pigweed (pigweed (Amaranthus retroflexus)) for entry C=CCn1cc(C(=O)c2ccccc2)c(-c2cc(Cl)cc(Cl)c2)n1 is 60

====

system: pigweed (Amaranthus retroflexus); test: Test C pre-/postemergence greenhouse test, plant response rating 0-100; type: in vivo; settings: Amaranthus retroflexus, pre-emergence; Preemergence, 62 g ai/ha; read-out: Plant response rating, Pigweed
Hi there, I'd appreciate the recorded pest or weed control at 62 g/ha for every entry that follows.

Record CCOC(OCC)(c1ccccc1)c1c[nH]nc1-c1cc(Cl)cc(Cl)c1 [Compound 14] , field pest or weed control at 62 g/ha: 98%

The recorded pest or weed control at 62 g/ha for COC(OC)(c1ccccc1)c1c[nH]nc1-c1cc(Cl)cc(Cl)c1 [Compound 13] is 90%

Recorded pest or weed control at 62 g/ha (compound Clc1cc(Cl)cc(-c2n[nH]cc2C(=NN2CCCC2)c2ccccc2)c1 [Compound 30] ): 60%

Record summary for C#CCn1cc(C(=O)c2ccccc2)c(-c2cc(Cl)cc(Cl)c2)n1 [Compound 39] : reported pest or weed control at 62 g/ha = 45%

====

Give Plant response rating, Corn for every item shown.
tested on: corn (Zea mays); assay: Test E pre-/postemergence greenhouse test, plant response rating 0-100; assay type: in vivo; conditions: Postemergence, 250 g ai/ha; scale 0 to 100
// keep it numeric: no unit symbol after the value

Measured Plant response rating, Corn (corn (Zea mays)), entry CCn1cc(C(=O)c2cccs2)c(-c2cc(Cl)cc(Cl)c2)n1 : 0

Record for O=C(c1ccccc1)c1cn(S(=O)(=O)CCl)nc1-c1cc(Cl)cc(Cl)c1 under target or system corn (Zea mays): Plant response rating, Corn reported as 0

Reported Plant response rating, Corn (corn (Zea mays)) for entry ON=C(c1ccccc1)c1c[nH]nc1-c1cc(Cl)cc(Cl)c1 is 0

Value sought: Plant response rating, Corn, system corn (Zea mays), item Cn1cc(C(=O)c2cccs2)c(-c2cc(Cl)cc(Cl)c2)n1 . Result: 0
